biological target: Polθ protein (amino acids 2-2590) (Homo sapiens); assay: Polθ full length enzyme potency assay (PicoGreen); conditions: Polθ IC50 (nM), full length N-His, C-term FLAG tagged Polθ, PicoGreen fluorescence, 12 point concentration response
Measurement Label: log10 of IC50 (log10 of the value in nM)

{"columns": ["Compound", "log10 of IC50"],
 "data": [
  ["Cc1cc(C(F)(F)F)cc(N2C(=O)N(CCN(C)C)C[C@H]2C(=O)N(C)c2ccc(F)c(Cl)c2)n1", 1.79],
  ["Cc1cc(C(F)(F)F)cc(N2C(=O)[C@@H](COCc3ccccc3)C[C@H]2C(=O)N(C)c2ccc(F)c(Cl)c2)n1", 1.38],
  ["Cc1cc(C(F)(F)F)cc(N2C(=O)NC[C@H]2C(=O)N(C)c2ccc3ccn(C)c3n2)n1", 0.70],
  ["CCc1ccc(N(C)C(=O)[C@@H]2COC(=O)N2c2cc(C(F)(F)F)cc(C)n2)c(F)c1", 1.04],
  ["Cc1cc(C(F)(F)F)cc(N2C(=O)[C@H](CN(C)C)C[C@@H]2C(=O)N(C)c2ccc(F)c(Cl)c2)n1 (stereo in doubt)", 1.68],
  ["Cc1cc(C(F)(F)F)cc(N2C(=O)N(CC3(CO)COC3)C[C@H]2C(=O)N(C)c2ccc(F)c(Cl)c2F)n1", 0.95],
  ["Cc1cc(C(F)(F)F)cc(N2C(=O)OC[C@H]2C(=O)N(C)c2ccc(F)c(Cl)c2F)n1", 0.70]
]}

---

target: Polθ protein (amino acids 2-2590) (Homo sapiens, UniProt O75417); test: Polθ full length enzyme potency assay (PicoGreen); settings: read-out: Polθ IC50; full length N-His, C-term FLAG tagged Polθ, PicoGreen fluorescence, 12 point concentration response
Sequence (O75417 2-2590): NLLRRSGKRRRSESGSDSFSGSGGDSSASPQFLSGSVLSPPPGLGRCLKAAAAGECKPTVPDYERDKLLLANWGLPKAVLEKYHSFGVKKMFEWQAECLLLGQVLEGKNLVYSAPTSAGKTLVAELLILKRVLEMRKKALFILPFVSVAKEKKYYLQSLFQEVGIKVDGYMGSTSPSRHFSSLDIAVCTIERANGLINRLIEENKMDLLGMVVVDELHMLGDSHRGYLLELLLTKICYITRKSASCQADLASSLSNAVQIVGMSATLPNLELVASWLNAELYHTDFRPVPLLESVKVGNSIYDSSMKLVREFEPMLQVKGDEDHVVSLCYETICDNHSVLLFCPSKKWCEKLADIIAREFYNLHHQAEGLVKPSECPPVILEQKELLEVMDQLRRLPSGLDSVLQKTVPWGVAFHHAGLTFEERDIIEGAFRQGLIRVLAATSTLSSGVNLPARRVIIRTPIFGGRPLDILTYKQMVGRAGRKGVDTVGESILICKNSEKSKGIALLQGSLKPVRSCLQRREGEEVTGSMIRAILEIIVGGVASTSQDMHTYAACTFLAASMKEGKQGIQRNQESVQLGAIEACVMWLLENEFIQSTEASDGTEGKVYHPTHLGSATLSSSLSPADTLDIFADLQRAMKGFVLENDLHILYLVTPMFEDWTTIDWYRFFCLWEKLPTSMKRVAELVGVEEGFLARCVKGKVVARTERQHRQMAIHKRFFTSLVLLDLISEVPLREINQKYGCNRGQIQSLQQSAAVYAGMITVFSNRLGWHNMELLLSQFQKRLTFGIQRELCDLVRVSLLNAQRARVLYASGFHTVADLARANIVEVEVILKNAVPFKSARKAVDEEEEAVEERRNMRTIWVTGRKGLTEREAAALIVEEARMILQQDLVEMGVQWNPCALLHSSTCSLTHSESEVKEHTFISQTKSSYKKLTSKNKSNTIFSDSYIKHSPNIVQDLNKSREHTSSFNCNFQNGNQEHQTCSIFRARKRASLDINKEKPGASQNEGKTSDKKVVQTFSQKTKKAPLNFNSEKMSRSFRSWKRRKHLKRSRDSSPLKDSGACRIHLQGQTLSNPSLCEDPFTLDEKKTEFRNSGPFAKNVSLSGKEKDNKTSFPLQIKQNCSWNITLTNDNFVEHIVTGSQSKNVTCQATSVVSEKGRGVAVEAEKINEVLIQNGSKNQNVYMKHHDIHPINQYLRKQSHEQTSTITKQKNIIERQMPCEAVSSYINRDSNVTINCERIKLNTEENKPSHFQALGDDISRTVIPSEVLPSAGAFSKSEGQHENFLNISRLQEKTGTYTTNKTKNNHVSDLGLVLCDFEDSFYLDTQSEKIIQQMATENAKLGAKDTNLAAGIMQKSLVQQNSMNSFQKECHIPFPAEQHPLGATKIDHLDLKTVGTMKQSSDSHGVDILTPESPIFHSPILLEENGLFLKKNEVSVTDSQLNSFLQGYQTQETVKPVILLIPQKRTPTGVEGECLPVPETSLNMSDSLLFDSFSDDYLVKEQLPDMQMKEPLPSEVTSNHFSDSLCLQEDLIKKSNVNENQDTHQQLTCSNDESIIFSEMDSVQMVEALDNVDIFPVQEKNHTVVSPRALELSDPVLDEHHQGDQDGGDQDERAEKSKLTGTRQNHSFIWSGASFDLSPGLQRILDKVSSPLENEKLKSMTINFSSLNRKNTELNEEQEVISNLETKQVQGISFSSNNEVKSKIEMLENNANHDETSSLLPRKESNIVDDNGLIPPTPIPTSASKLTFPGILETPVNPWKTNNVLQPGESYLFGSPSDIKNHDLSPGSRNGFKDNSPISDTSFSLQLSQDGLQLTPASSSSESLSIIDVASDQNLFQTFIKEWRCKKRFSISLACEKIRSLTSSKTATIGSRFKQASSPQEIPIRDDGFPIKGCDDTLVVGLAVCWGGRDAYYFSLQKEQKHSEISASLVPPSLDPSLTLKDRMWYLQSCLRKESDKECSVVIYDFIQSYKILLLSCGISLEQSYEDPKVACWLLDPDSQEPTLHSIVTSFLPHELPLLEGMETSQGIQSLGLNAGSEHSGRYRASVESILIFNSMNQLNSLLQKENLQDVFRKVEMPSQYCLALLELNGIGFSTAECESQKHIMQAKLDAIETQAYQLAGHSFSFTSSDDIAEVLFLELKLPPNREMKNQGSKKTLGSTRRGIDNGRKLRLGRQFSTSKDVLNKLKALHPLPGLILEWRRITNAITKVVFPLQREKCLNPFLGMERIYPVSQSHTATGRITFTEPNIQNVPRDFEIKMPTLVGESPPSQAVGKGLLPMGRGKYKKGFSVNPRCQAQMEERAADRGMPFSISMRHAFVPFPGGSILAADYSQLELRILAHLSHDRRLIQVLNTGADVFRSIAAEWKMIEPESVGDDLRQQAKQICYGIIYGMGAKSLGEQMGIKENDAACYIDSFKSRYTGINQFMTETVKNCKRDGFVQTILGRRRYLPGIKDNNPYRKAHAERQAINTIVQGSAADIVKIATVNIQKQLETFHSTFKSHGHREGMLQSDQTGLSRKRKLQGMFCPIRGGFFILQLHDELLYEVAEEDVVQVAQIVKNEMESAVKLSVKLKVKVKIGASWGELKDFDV
pIC50: −log10 of the molar value.
The compounds listed here are annotated with their pIC50.

{"columns": ["Compound", "pIC50"],
 "data": [
  ["Cc1cc(C(F)(F)F)cc(N2C(=O)[C@@H](O)C[C@H]2C(=O)N(C)c2ccc(F)c(Cl)c2)n1 [Example 74]", 7.60],
  ["Cc1cc(C(F)(F)F)cc(N2C(=O)OC[C@H]2C(=O)N(C)c2cc(Cl)c(F)cc2F)n1 [Example 98]", 7.49],
  ["Cc1cc(C(F)(F)F)cc(N2C(=O)OC[C@H]2C(=O)N(C)c2cccc(Cl)c2F)n1 [Example 95]", 7.82],
  ["Cc1cccc(N(C)C(=O)[C@@H]2[C@@H](O)CCN2c2nc(C)cc(C(F)(F)F)c2C#N)c1 [Example 26]", 7.21],
  ["Cc1cc(C(F)(F)F)cc(N2C(=O)OC[C@H]2C(=O)N(c2ccc(F)c(Cl)c2)C(C)C)n1 [Example 104]", 7.46],
  ["Cc1cc(C(F)(F)F)cc(N2C(=O)OC[C@H]2C(=O)N(C)c2cc(Cl)ccc2F)n1 [Example 96]", 7.62],
  ["CCN(C(=O)[C@@H]1[C@H](O)[C@H](O)C(=O)N1c1cc(C(F)(F)F)cc(C)n1)c1ccc(F)c(Cl)c1 [Example 66]", 7.70]
]}

---

target: Polθ protein (amino acids 2-2590) (Homo sapiens, UniProt O75417); assay: Polθ full length enzyme potency assay (PicoGreen); conditions: Polθ IC50 (nM), full length N-His, C-term FLAG tagged Polθ, PicoGreen fluorescence, 12 point concentration response
// assign Satisfied if IC50 falls strictly below 20 nM, else Not satisfied (ties count as Not satisfied)

{"columns": ["Compound", "Class"],
 "data": [
  ["CCN(C(=O)[C@@H]1C[C@H](N[C@@H]2CN(C(=O)OC(C)(C)C)C[C@H]2O)CN1c1cc(C(F)(F)F)cc(C)n1)c1ccc(F)c(F)c1 (racemic)", "Not satisfied"],
  ["CC(=O)N1CCN(CCCN2C[C@@H](C(=O)N(C)c3ccc(F)c(Cl)c3F)N(c3cc(C(F)(F)F)cc(C)n3)C2=O)CC1", "Satisfied"],
  ["Cc1cc(C(F)(F)F)cc(N2C(=O)N(CCN3CCN(C)C(=O)C3)C[C@H]2C(=O)N(C)c2ccc(F)c(Cl)c2F)n1", "Satisfied"],
  ["Cc1cc(C(F)(F)F)cc(N2C(=O)N(CCCN3CCNCC3)C[C@H]2C(=O)N(C)c2ccc(F)c(Cl)c2F)n1", "Satisfied"],
  ["CN(C(=O)[C@@H]1COC(=O)N1c1cc(C(F)(F)F)cc(Cl)n1)c1ccc(F)c(Cl)c1", "Not satisfied"],
  ["CCN(C(=O)[C@@H]1C[C@H](N(C)CCS(C)(=O)=O)CN1c1nc(C)cc(C)c1C#N)c1cccc(C)c1", "Not satisfied"],
  ["CCN(C(=O)[C@@H]1C[C@H](NC(C)=O)C(=O)N1c1cc(C(F)(F)F)cc(C)n1)c1ccc(F)c(Cl)c1", "Not satisfied"],
  ["CCN(C(=O)[C@@H]1C[C@H](N[C@@H]2COCC[C@H]2O)CN1c1cc(C(F)(F)F)cc(C)n1)c1ccc(F)c(F)c1", "Not satisfied"],
  ["Cc1cc(C(F)(F)F)cc(N2C(=O)N(CCS(=O)(=O)N(C)C)C[C@H]2C(=O)N(C)c2ccc(F)c(Cl)c2)n1", "Not satisfied"],
  ["Cc1cc(C(F)(F)F)cc(N2C(=O)NC[C@H]2C(=O)N(C)c2ccc3occ(C)c3n2)n1", "Satisfied"],
  ["COc1cc(N(C)C(=O)[C@@H]2COC(=O)N2c2cc(C(F)(F)F)cc(C)n2)ccc1C", "Satisfied"],
  ["Cc1cc(C(F)(F)F)cc(N2C(=O)N(CC3CN(C)C(=O)O3)C[C@H]2C(=O)N(C)c2ccc(F)c(Cl)c2F)n1 (single isomer, unassigned; isomer 2)", "Satisfied"],
  ["Cc1cc(C(F)(F)F)c(C#N)c(N2C[C@@H](O)C[C@H]2C(=O)N(C)c2ccc(C(F)(F)F)c(F)c2)n1", "Not satisfied"]
]}
